Provide the reported residual activity of each item.
Biological target: UniProt:Q9Y4K4
Sequence (Q9Y4K4 whole entry, looked up): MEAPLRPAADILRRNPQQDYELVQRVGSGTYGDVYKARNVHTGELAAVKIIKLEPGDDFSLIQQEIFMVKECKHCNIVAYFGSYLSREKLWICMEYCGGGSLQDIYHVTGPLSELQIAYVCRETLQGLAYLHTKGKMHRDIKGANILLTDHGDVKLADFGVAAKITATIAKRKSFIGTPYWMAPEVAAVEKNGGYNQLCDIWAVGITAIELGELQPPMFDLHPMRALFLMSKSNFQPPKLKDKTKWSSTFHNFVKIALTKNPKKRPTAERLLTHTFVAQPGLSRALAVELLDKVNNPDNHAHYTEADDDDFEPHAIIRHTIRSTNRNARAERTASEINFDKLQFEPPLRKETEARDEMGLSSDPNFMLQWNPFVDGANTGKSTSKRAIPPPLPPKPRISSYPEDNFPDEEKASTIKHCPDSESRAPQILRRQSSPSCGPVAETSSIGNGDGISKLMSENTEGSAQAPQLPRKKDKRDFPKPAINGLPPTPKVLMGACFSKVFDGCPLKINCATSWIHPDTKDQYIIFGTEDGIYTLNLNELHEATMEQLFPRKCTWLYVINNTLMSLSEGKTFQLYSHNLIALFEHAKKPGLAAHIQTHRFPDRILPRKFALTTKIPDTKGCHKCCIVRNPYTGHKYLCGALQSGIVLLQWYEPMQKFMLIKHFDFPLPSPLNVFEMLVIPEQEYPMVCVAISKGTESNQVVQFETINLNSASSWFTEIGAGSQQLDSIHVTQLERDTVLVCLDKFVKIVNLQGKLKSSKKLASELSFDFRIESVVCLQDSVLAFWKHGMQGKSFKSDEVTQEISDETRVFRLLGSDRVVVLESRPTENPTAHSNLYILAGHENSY
Test: radiometric filter-binding kinase assay, Kinase HotSpot
Details: compound 0.5 µM; ATP 10 µM
Answer by giving the amount and then stating its unit.

Consider the compound shown here: O=C1NC(=O)C(c2cn(CCCO)c3ncccc23)=C1c1cnccn1 What is its recorded residual activity?
37.5%

// residual activity lookup, key: Cn1sc(=O)n(Cc2ccccc2)c1=O
107%

Item under review: Cc1nc2cc3nc(-c4cccs4)cnc3cc2n1C . Reported residual activity?
94.8%

Dear colleague, I am looking for the recorded residual activity of the following compound: Nc1nnc2[nH]c3ccccc3nc1-2
96.8%

May I ask what residual activity has been recorded for COc1ccc(OC)c2c(=S)c3ccccc3[nH]c12 ?
95.2%

What value of residual activity has been reported for the following compound? CN(C)C[C@H]1CCn2c(c(C3=C(c4cn(C)c5ccccc45)C(=O)NC3=O)c3ccccc32)C1
99.9%

Can you share its residual activity? I mean this compound: CC(=O)O/N=C1\C(=C2\C(=O)Nc3cc(Br)ccc32)Nc2ccccc21
24.1%

Which value of residual activity has been reported for O=C1Nc2ccccc2/C1=C1\Nc2ccccc2\C1=N/O in the records?
37.8%

So what does the record say about residual activity for O=C1Cc2c([nH]c3ccc(Br)cc23)-c2ccccc2N1 ?
30.1%

Which residual activity value belongs to CC(C)c1nn(-c2c(Cl)cccc2Cl)c2nc(Cc3ccc(OCCO)cc3)nc(O)c12 ?
89.9%

Name the reported residual activity value associated with the compound O=C(CCCc1ccc(-c2ccccc2F)cc1)Nc1ccc(O)cc1
94.1%

Look at this compound and give its reported residual activity. Cn1nc2c3c(cccc31)C(=O)c1ccccc1-2
86%

Can you share its residual activity? I mean this compound: CCn1cnc2c(Nc3cccc(Cl)c3)nc(N[C@@H]3CCCC[C@@H]3N)nc21
91.1%

What value of residual activity has been recorded for this entry: O=C1NC(=O)/C(=C\c2ccc3nccnc3c2)S1
85.4%

Look up residual activity for this compound: CCN(CC)CCCCN1c2ccccc2Oc2ccc(Cl)cc21
93.4%

Data request, read-out residual activity, for O=C1NC(=O)C(c2c[nH]c3ccccc23)=C1c1c[nH]c2ccccc12
87.1%

Entry CC(C)[C@H](CO)Nc1nc(Nc2cc(N)cc(Cl)c2)c2ncn(C(C)C)c2n1 : reported residual activity = ?
82.5%

What does the record list as residual activity for COc1cc2ncc(-c3ccccc3)nc2cc1OC ?
99.8%

Please report the recorded residual activity for Cn1cnc2cc3c(Nc4cccc(Br)c4)ncnc3cc21 .
56.1%

Look at this compound and give its reported residual activity. COc1ccc(CNC(=O)Nc2ncc([N+](=O)[O-])s2)cc1
93.9%

Which residual activity value belongs to O=C(O)/C=C/c1cc(Br)c(Br)c(Br)c1Br ?
80.3%

Item COc1cc2ncnc(N3CCN(C(=O)Nc4ccc(Oc5ccccc5)cc4)CC3)c2cc1OC has what recorded residual activity?
81.6%

====

Biological target: MAP3K5 (human)
Assay: radiometric filter-binding kinase assay, Kinase HotSpot
Conditions: compound 0.5 µM; ATP 10 µM
assay-metric: residual activity (%)
Your answer should be a plain number; it is taken to be in %.

Can you look up the measured residual activity of O=C(Nc1cccc(Nc2cc(Nc3cccc(C(F)(F)F)c3)ncn2)c1)C1CC1 for me?
104

Quick check: residual activity of O=C1NC(=O)C(c2cn(CCCO)c3ncccc23)=C1c1cnccn1 ?
88.9

What residual activity value was documented for this compound, COc1ccc(CNC(=O)Nc2ncc([N+](=O)[O-])s2)cc1 ?
87.8

Fill in the blank: the reported residual activity of Cn1sc(=O)n(Cc2ccccc2)c1=O is ____.
91.5

Request the reported residual activity associated with O=C1Nc2ccccc2/C1=C1/Nc2ccccc2/C1=N\OCCC(O)CO (stereo not drawn)
91.2

Quick one: residual activity of O=C1NC(=O)/C(=C\c2ccc3nccnc3c2)S1 ?
102

Quick check: residual activity of COc1cc2ncc(-c3ccccc3)nc2cc1OC ?
108

Data request, read-out residual activity, for Oc1ccc(Nc2nc(-c3ccc(Cl)cc3)cs2)cc1
108

Query: residual activity; subject: O=C(CCCc1ccc(-c2ccccc2F)cc1)Nc1ccc(O)cc1
94.3

residual activity lookup needed for CC(C)c1nn(-c2c(Cl)cccc2Cl)c2nc(Cc3ccc(OCCO)cc3)nc(O)c12 , thanks.
119

Please give the measured residual activity for this compound: Cc1nc2cc3nc(-c4cccs4)cnc3cc2n1C
98.9

Need residual activity of CN(C)C[C@H]1CCn2c(c(C3=C(c4cn(C)c5ccccc45)C(=O)NC3=O)c3ccccc32)C1 , thanks.
107

Give the measured residual activity of COc1ccc(OC)c2c(=S)c3ccccc3[nH]c12 .
115

Return reported residual activity; argument: CCN(CC)CCCCN1c2ccccc2Oc2ccc(Cl)cc21
106

So what's the measured residual activity for this one? O=C1Cc2c([nH]c3ccc(Br)cc23)-c2ccccc2N1
99.2

Which residual activity is listed for Cn1nc2c3c(cccc31)C(=O)c1ccccc1-2 ?
93.1

For the compound shown here, CC(=O)O/N=C1\C(=C2\C(=O)Nc3cc(Br)ccc32)Nc2ccccc21 , give the reported residual activity.
95.8

Please look up its residual activity: CCn1cnc2c(Nc3cccc(Cl)c3)nc(N[C@@H]3CCCC[C@@H]3N)nc21
103

Could you share which residual activity value was measured for COc1cc2ncnc(N3CCN(C(=O)Nc4ccc(Oc5ccccc5)cc4)CC3)c2cc1OC ?
102

Reported residual activity for CN([C@@H](Cc1ccc(OS(=O)(=O)c2cccc3cnccc23)cc1)C(=O)N1CCN(c2ccccc2)CC1)S(=O)(=O)c1cccc2cnccc12 : what is it?
99.2

Quick check: residual activity of O=C1Nc2ccccc2/C1=C1\Nc2ccccc2\C1=N/O ?
84.3

Look up residual activity for this compound: Nc1nnc2[nH]c3ccccc3nc1-2
103

Recorded residual activity of CC(C)[C@H](CO)Nc1nc(Nc2cc(N)cc(Cl)c2)c2ncn(C(C)C)c2n1 , please.
95.6
